Molecular target: UniProt:C7C422
Sequence (C7C422 whole entry, looked up, species assumed): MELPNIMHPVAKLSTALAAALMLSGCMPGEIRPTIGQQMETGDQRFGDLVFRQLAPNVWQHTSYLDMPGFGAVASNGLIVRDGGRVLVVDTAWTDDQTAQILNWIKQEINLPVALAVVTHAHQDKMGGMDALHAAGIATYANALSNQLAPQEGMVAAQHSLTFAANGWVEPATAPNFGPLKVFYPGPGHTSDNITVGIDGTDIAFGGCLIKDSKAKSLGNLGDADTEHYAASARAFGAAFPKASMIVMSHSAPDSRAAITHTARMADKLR
Test: biochemical
Type: biochemical
Details: fluorescence assay with CCF2-FA substrate; read-out: NDM-1 IC50
Label label 1 when IC50 is strictly below 0.02 µM; at or above that, label label 0.

Exercise: IC50 strictly < 0.02 µM for this molecule? `NS(=O)(=O)c1nccc(-c2ccccc2)c1-c1nn[nH]n1`
Solution: label 0

Exercise: Consider `NS(=O)(=O)c1cccc(-c2ccnc(F)c2)c1-c1nn[nH]n1` . Does its IC50 lie strictly below 0.02 µM?
Solution: label 1

Exercise: Answer whether the molecule `NS(=O)(=O)c1nccc(-c2ccc3c(c2)CC(=O)N3)c1-c1nn[nH]n1` has IC50 strictly less than 0.02 µM
Solution: label 0

Exercise: Take the molecule NS(=O)(=O)c1c(C(F)(F)F)ccc(-c2ccc(C3CCN(C4CCNC4)CC3)cc2)c1-c1nnn[nH]1 (stereo not drawn) and say whether its IC50 is less than 0.02 µM.
Solution: label 1

Exercise: Given `CC(C)c1cccc(S(N)(=O)=O)c1-c1nnn[nH]1` , is recorded IC50 strictly lower than 0.02 µM?
Solution: label 1

Exercise: is_below(IC50, 0.02 µM) for `NCC1CN(C2CCN(c3ccc(C(F)(F)F)c(S(N)(=O)=O)c3-c3nnn[nH]3)CC2)C1` ?
Solution: label 0

Exercise: State whether 0.02 µM exceeds IC50 recorded for CNC1CC(N2CC(c3ccc(-c4ccc(C(F)(F)F)c(S(N)(=O)=O)c4-c4nnn[nH]4)cc3)C2)C1 (stereo not drawn) .
Solution: label 1

Exercise: Determine whether this molecule shows IC50 lower than 0.02 µM (ties excluded): `NS(=O)(=O)c1cccc(-c2ccccn2)c1-c1nn[nH]n1`
Solution: label 1

Exercise: Is the reported IC50 for `CN(C)CCCOc1ccc(-c2cccc(S(N)(=O)=O)c2-c2nn[nH]n2)cn1` strictly below 0.02 µM?
Solution: label 0

Exercise: Problem: For the molecule `NS(=O)(=O)c1cccc(-c2cnn(Cc3ccncc3)c2)c1-c1nn[nH]n1` , is IC50 under 0.02 µM?
Solution: label 0

Exercise: Dear reviewer, please state whether `Cc1ccccc1-c1ccnc(S(N)(=O)=O)c1-c1nn[nH]n1` has IC50 strictly beneath 0.02 µM.
Solution: label 1

Exercise: I'd appreciate it if you could check whether `COc1ccc2cc(-c3cccc(S(N)(=O)=O)c3-c3nnn[nH]3)cnc2n1` has IC50 smaller than 0.02 µM.
Solution: label 1

Exercise: Identify whether the molecule `NC1(CN2CCC3(CCC(c4ccc(C(F)(F)F)c(S(N)(=O)=O)c4-c4nnn[nH]4)CC3)CC2)CC1` records IC50 below 0.02 µM.
Solution: label 1

Exercise: Below 0.02 µM on IC50? Entry `NS(=O)(=O)c1cccc(-c2ccc3ncccc3c2)c1-c1nn[nH]n1`
Solution: label 1

Exercise: Quick check: does NS(=O)(=O)c1cccc(C2CCC(O)CC2)c1-c1nn[nH]n1 (stereo not drawn) have IC50 under 0.02 µM?
Solution: label 1

Exercise: Is IC50 strictly under 0.02 µM for the entry `Cc1ccc(Cc2cccc(S(N)(=O)=O)c2-c2nnn[nH]2)cc1` ?
Solution: label 1

Exercise: Hi there! Is IC50 for `NS(=O)(=O)c1cccc(-c2cnc3ccccc3c2)c1-c1nnn[nH]1` below 0.02 µM, do you know?
Solution: label 1

Exercise: Would you kindly verify if IC50 of `CCNC(=O)N1CCC(c2cccc(S(N)(=O)=O)c2-c2nn[nH]n2)CC1` is strictly less than 0.02 µM?
Solution: label 1

Exercise: Consider `NS(=O)(=O)c1cccc(-c2ccc(CO)cc2)c1-c1nnn[nH]1` . Does its IC50 lie strictly below 0.02 µM?
Solution: label 1

Exercise: Input `NC1CN(C2CCN(c3ccc(C(F)(F)F)c(S(N)(=O)=O)c3-c3nnn[nH]3)CC2)C1` ; condition: IC50 strictly below 0.02 µM. Does it hold?
Solution: label 0

Exercise: # TODO verify IC50 < 0.02 µM strictly for this molecule: `Nc1nccc(-c2cccc(-c3ccc(C(F)(F)F)c(S(N)(=O)=O)c3-c3nnn[nH]3)c2)n1`
Solution: label 1

Exercise: Item NS(=O)(=O)c1cccc(-c2ccc(C(O)C(F)F)cc2)c1-c1nnn[nH]1 (stereo not drawn) : IC50 beneath 0.02 µM, strictly?
Solution: label 1

Exercise: Quick check: IC50 of `CCOC(=O)CCn1cc(-c2cccc(S(N)(=O)=O)c2-c2nn[nH]n2)cn1` under 0.02 µM?
Solution: label 0

Exercise: hey, is IC50 for N#CC1CC=C(c2cccc(S(N)(=O)=O)c2-c2nn[nH]n2)CC1 (stereo not drawn) lower than 0.02 µM or not?
Solution: label 1

Reference for the values: patent US9708336B2
